# Study Target: T1, human ferroportin (SLC40A1) fused in frame with GFP, stably expressed in HEK293 cells (human, UniProt Q9NP59 1-571)
# T1 sequence (looked up): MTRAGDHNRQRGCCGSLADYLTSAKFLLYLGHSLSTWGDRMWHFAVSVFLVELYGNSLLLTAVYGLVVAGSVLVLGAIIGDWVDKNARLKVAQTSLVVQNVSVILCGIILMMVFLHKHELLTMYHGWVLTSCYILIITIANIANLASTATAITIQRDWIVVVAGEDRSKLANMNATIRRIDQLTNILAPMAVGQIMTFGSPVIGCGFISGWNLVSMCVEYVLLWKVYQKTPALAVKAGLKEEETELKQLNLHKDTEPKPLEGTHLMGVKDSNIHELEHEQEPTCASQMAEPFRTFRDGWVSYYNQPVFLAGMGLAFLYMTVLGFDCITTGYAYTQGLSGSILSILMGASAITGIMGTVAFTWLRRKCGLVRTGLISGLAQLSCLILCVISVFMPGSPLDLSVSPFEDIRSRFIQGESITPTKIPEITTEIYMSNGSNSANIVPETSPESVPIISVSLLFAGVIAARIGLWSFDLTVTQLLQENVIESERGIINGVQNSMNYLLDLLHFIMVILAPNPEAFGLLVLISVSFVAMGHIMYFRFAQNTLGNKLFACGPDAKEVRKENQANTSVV
# Protocol Details: cell-based or functional assay
Starred links: 1 amine or outer side, 2 acyl side, 3 side chain; linkers in the order of their positions; H or OH if unused. Non-standard residues stand in square brackets, D forms with d. Groups on a side chain read outwards from the residue. No end group written: not given here. *: point of attachment. bhGly(phenylbutyl) = 3-((4-phenylbutyl)amino)propanoic acid, O=C(CCN(CCCCc1ccccc1)[*:1])[*:2]; Carnitine = carnitine group on the Lys side chain, C[N+](C)(C)C[C@H](O)CC(=O)*; Dip = N[C@H](C(=O)O)C(c1ccccc1)c1ccccc1; NH(4-phenylbutyl) = c1ccc(CCCCN*)cc1; Palmitoyl = CCCCCCCCCCCCCCCC(=O)*; β3hF = N[C@H](CC(=O)O)Cc1ccccc1; DMG_N_2ae = not defined here; NMeK = CN[C@@H](CCCCN)C(=O)O; Isovaleryl = CC(C)CC(=O)*; Orn = NCCC[C@H](N)C(=O)O; Ahx = NCCCCCC(=O)O
Measurement Type: IC50: FPN internalisation

Lookup: // lookup IC50: FPN internalisation for Isovaleryl-KTH[Dip]P[DMG_N_2ae]E[β3hF]K([Ahx-Palmitoyl])-NH2 (reading uncertain) [[Isovaleric Acid]-K-T-H-[Dpa]-P-[DMG_N_2ae]-E-[bhPhe]-[Lys(Ahx_Palm)]-NH2]
Found: 13.6 nM

Lookup: // next record XETHXPXXXX (N-term Isovaleric Acid; Dpa4; DMG_N_2ae6; (D)Lys7; bhPhe8; Lys(Ahx_Palm)9; C-term NH2) [[Isovaleric Acid]-E-T-H-[Dpa]-P-[DMG_N_2ae]-[(D)Lys]-[bhPhe]-[Lys(Ahx_Palm)]-NH2]
Found: 35.6 nM

Lookup: Next: Isovaleryl-[Orn]TH[Dip]PAI[NMeK]([Ahx-Palmitoyl])[bhGly(phenylbutyl)] [[Isovaleric Acid]-[Orn]-T-H-[Dpa]-P-A-I-[N-MeLys(Ahx_Palm)]-[bhGly(phenylbutyl)]]
Found: 201 nM

Lookup: What do you get for Isovaleryl-ETH[Dip]P[DMG_N_2ae][NMeK]([Ahx-Palmitoyl])[β3hF]-NH2 (reading uncertain) [[Isovaleric Acid]-E-T-H-[Dpa]-P-[DMG_N_2ae]-[N-MeLys(Ahx_Palm)]-[bhPhe]-NH2] ?
Found: 10.7 nM

Lookup: Thanks! And Isovaleryl-KTH[Dip]PAK(Carnitine)E[NMeK]([Ahx-Palmitoyl])-{NH(4-phenylbutyl)} (SMILES CCCCCCCCCCCCCCCC(=O)NCCCCCC(=O)NCCCC[C@@H](C(=O)NCCCCc1ccccc1)N(C)C(=O)[C@H](CCC(=O)O)NC(=O)[C@H](CCCCNC(=O)C[C@@H](O)C[N+](C)(C)C)NC(=O)[C@H](C)NC(=O)[C@@H]1CCCN1C(=O)[C@@H](NC(=O)[C@H](Cc1c[nH]cn1)NC(=O)[C@@H](NC(=O)[C@H](CCCCN)NC(=O)CC(C)C)[C@@H](C)O)C(c1ccccc1)c1ccccc1) [[Isovaleric Acid]-K-T-H-[Dpa]-P-A-[Lys(Carnitine)]-E-[N-MeLys(Ahx_Palm)]-[Phenylbutyl Amine]] ?
Found: 5.9 nM
